Reported sfGFP reporter fluorescence values follow for various variants
B1: library; a variant is named by its letters at X, in order (parent)
chain: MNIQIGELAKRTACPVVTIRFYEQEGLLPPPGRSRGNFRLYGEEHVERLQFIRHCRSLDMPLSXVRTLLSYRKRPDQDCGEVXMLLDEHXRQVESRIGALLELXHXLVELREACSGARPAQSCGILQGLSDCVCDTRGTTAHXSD

# Variants of: B1
# PROTOCOL: sfGFP reporter fluorescence (15 h) (µM FITC); higher = higher leak
# MEASUREMENT CONTEXT: library round: Round 3b; ligand: none
Enter a number only.

Worked set:
Task item: Any idea what sfGFP reporter fluorescence was measured for `KFIVER` ?
Reply: 0.0558

Task item: Any idea what sfGFP reporter fluorescence was measured for `KFATEP` ?
Reply: 0.0465

Task item: Any idea what sfGFP reporter fluorescence was measured for `KFAKHR` ?
Reply: 0.0685

Task item: Any idea what sfGFP reporter fluorescence was measured for `DFAKER` ?
Reply: 0.044

Task item: Any idea what sfGFP reporter fluorescence was measured for `KFATER` ?
Reply: 0.0457

Task item: Any idea what sfGFP reporter fluorescence was measured for `DIATHT` ?
Reply: 0.0414

---
Task item: Any idea what sfGFP reporter fluorescence was measured for `KFATHP` ?
Reply: 0.0523

Task item: Any idea what sfGFP reporter fluorescence was measured for `KNAVER` ?
Reply: 0.0532

Task item: Any idea what sfGFP reporter fluorescence was measured for `KIAKER` ?
Reply: 0.0554

Task item: Any idea what sfGFP reporter fluorescence was measured for `KFIVET` ?
Reply: 0.0511

Sourced from the supplement of paper PMC12783771
